# Ki annotations
- SYSTEM UNDER TEST: Carbonic anhydrase
QUANTITY KIND: Ki (nM)

1) CNS(=O)(=O)c1ccc(Cl)cc1: 584
2) CNS(=O)(=O)c1ccc([N+](=O)[O-])cc1: 146
3) CN(O)S(=O)(=O)c1ccc([N+](=O)[O-])cc1: 44
4) CN(O)S(=O)(=O)c1ccc(Cl)cc1: 107

###

# logD annotations
- ASSAY SUMMARY: physchem
- ASSAY SETUP: octanol/pH 7.2 phosphate buffer
- Description: Compound was evaluated for Octanol/pH 7.2 phosphate buffer distribution coefficient
QUANTITY KIND: logD

1) CNS(=O)(=O)c1nnc(NC(C)=O)s1: 0.32
2) CNS(=O)(=O)c1ccc(Cl)cc1: 1.92
3) NS(=O)(=O)c1ccc(Cl)cc1 [P-CHLOROBENZENESULFONAMIDE]: 1.24

Sourced from ChEMBL document CHEMBL1123344
